Provenance of the data: ChEMBL document CHEMBL1137925

- EXPERIMENTAL SYSTEM: Sodium-dependent serotonin transporter (Rattus norvegicus)
- Sequence (P31652 whole entry): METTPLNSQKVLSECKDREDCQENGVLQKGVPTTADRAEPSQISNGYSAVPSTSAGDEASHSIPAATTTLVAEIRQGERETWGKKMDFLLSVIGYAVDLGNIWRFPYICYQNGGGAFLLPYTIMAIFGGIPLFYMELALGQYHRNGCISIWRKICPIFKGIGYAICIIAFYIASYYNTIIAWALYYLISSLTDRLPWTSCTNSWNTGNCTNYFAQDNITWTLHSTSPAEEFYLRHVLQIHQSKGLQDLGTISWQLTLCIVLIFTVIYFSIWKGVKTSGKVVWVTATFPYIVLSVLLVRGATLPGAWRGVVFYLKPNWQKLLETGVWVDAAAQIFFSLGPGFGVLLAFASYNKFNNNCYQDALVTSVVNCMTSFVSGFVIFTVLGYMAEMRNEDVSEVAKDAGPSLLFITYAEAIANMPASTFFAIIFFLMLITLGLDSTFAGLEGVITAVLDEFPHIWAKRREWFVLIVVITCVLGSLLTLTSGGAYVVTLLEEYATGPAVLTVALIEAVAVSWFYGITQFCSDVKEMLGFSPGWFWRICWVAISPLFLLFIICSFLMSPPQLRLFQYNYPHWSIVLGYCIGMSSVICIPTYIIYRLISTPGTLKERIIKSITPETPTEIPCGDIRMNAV
pKi: −log10 of the molar value.
Label Satisfied when pKi >= 9; otherwise Not satisfied.

Previously resolved entries follow.
{"COMPOUND": "COc1ccc2[nH]cc(C3=CCN(CCC4OCCc5cc(C(N)=O)ccc54)CC3)c2c1 (centres undefined)", "CAT": "Not satisfied"}
{"COMPOUND": "NC(=O)c1ccc2c(c1)CCO[C@@H]2CCN1CC=C(c2c[nH]c3c(F)cccc23)CC1", "CAT": "Satisfied"}
{"COMPOUND": "NC(=O)c1ccc2c(c1)CCOC2CCN1CC=C(c2cccc3ccc(F)cc23)CC1 (centres undefined)", "CAT": "Not satisfied"}

Exercise: Please check the record NC(=O)c1ccc2c(c1)CCOC2CCN1CCC(c2c[nH]c3cc(F)ccc23)CC1 (centres undefined) and state if its pKi is at or above 9.
Key: Not satisfied

Exercise: And then `NC(=O)c1ccc2c(c1)CCO[C@H]2CCN1CC=C(c2c[nH]c3c(F)cccc23)CC1` , what is it?
Key: Satisfied

Exercise: And then NC(=O)c1ccc2c(c1)CCOC2CCN1CC=C(c2c[nH]c3cc(Cl)ccc23)CC1 (centres undefined) , what is it?
Key: Satisfied

Exercise: And then N#Cc1cccc2c(C3=CCN(CCC4OCCc5cc(C(N)=O)ccc54)CC3)c[nH]c12 (centres undefined) , what is it?
Key: Not satisfied

* * *

- EXPERIMENTAL SYSTEM: Adrenergic receptor alpha-1 (Rattus norvegicus, UniProt P15823+P23944+P43140)
- ASSAY EXPLANATION: Binding affinity determined against alpha-1 adrenergic receptor in rat cortex membranes using [3H]prazosin as radioligand
- Format: cell membranes
Listed here are compounds together with their documented Ki.
Field: numeric (nM). Do not append units.

Exercise: Need Ki of NC(=O)c1ccc2c(c1)CCOC2CCN1CC=C(c2c[nH]c3ccc(F)cc23)CC1 (centres undefined) , thanks.
Key: 101

Exercise: And then NC(=O)c1ccc2c(c1)CCOC2CCN1CCN(c2c[nH]c3cc(F)ccc23)CC1 (centres undefined) , what is it?
Key: 5.8

Exercise: And then NC(=O)c1ccc2c(c1)CCOC2CCN1CC=C(c2csc3cc(F)ccc23)CC1 (centres undefined) , what is it?
Key: 17

* * *

Listed here are compounds together with their documented log10 of Ki.
- EXPERIMENTAL SYSTEM: D(2) dopamine receptor (Rattus norvegicus)
- Sequence (P61169 whole entry): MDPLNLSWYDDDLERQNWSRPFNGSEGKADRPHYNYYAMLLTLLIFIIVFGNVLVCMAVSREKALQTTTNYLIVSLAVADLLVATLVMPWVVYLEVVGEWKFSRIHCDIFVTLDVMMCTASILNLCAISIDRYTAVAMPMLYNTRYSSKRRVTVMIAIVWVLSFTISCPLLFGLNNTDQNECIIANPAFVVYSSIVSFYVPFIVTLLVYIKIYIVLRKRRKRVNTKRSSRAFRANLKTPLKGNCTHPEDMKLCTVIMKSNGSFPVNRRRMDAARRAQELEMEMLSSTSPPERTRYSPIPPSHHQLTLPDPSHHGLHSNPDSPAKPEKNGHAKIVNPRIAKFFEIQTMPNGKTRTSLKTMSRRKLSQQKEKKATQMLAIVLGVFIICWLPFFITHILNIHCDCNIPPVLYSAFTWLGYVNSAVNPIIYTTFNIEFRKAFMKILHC
- ASSAY EXPLANATION: Binding affinity determined against dopamine receptor D2 in rat caudate membranes using [3H]- raclopride as radioligand
The common logarithm of Ki in nM is what is listed.

{"COMPOUND": "NC(=O)c1ccc2c(c1)CCO[C@@H]2CCN1CC=C(c2c[nH]c3c(F)cccc23)CC1", "log10 of Ki": 1.68}
{"COMPOUND": "NC(=O)c1ccc2c(c1)CCOC2CCN1CC=C(c2cccc3ccccc23)CC1 (centres undefined)", "log10 of Ki": 2.22}
{"COMPOUND": "NC(=O)c1ccc2c(c1)CCOC2CCN1CC=C(c2c[nH]c3cc(C(F)(F)F)ccc23)CC1 (centres undefined)", "log10 of Ki": 0.93}

Turning now to a further record.
Exercise: Need log10 of Ki of NC(=O)c1ccc2c(c1)CCOC2CCN1CC=C(c2noc3cc(F)ccc23)CC1 (centres undefined) , thanks.
Key: 1.57

* * *

A set of molecules tested on Sodium-dependent serotonin transporter (Rattus norvegicus, UniProt P31652), with measured pKi:
Field pKi (float): negative decimal logarithm of the concentration in molar.

Here's what some known entries look like.
{"MOLECULE": "NC(=O)c1ccc2c(c1)CCOC2CCN1CC=C(c2csc3cc(F)ccc23)CC1 (stereo not given)", "EXPERIMENTAL SYSTEM": "Sodium-dependent serotonin transporter (Rattus norvegicus, UniProt P31652)", "pKi": 9.00}
{"MOLECULE": "NC(=O)c1ccc2c(c1)CCOC2CCN1CC=C(c2c[nH]c3cc(F)ccc23)CC1 (stereo not given)", "EXPERIMENTAL SYSTEM": "Sodium-dependent serotonin transporter (Rattus norvegicus, UniProt P31652)", "pKi": 9.96}
{"MOLECULE": "NC(=O)c1ccc2c(c1)CCOC2CCN1CC=C(c2ccc3cc(F)ccc3c2)CC1 (stereo not given)", "EXPERIMENTAL SYSTEM": "Sodium-dependent serotonin transporter (Rattus norvegicus, UniProt P31652)", "pKi": 8.66}
{"MOLECULE": "NC(=O)c1ccc2c(c1)CCOC2CCN1CC=C(c2c[nH]c3c(F)cccc23)CC1 (stereo not given)", "EXPERIMENTAL SYSTEM": "Sodium-dependent serotonin transporter (Rattus norvegicus, UniProt P31652)", "pKi": 9.12}
{"MOLECULE": "NC(=O)c1ccc2c(c1)CCOC2CCN1CC=C(c2cccc3ccccc23)CC1 (stereo not given)", "EXPERIMENTAL SYSTEM": "Sodium-dependent serotonin transporter (Rattus norvegicus, UniProt P31652)", "pKi": 8.49}

Exercise: For the record NC(=O)c1ccc2c(c1)CCOC2CCN1CC=C(c2[nH]nc3cc(F)ccc23)CC1 (stereo not given) , what value of pKi is listed for Sodium-dependent serotonin transporter (Rattus norvegicus, UniProt P31652)?
Key: 9.30

Exercise: And then C[C@H]1CC(c2c[nH]c3cc(F)ccc23)CCN1CCC1OCCc2cc(C(N)=O)ccc21 (stereo not given in full) , what is it?
Key: 9.11

Exercise: And then NC(=O)c1ccc2c(c1)CCOC2CCN1CC=C(c2noc3cc(F)ccc23)CC1 (stereo not given) , what is it?
Key: 8.10

Exercise: And then Cn1cc(C2=CCN(CCC3OCCc4cc(C(N)=O)ccc43)CC2)c2ccc(F)cc21 (stereo not given) , what is it?
Key: 9.01

Exercise: And then NC(=O)c1ccc2c(c1)CCOC2CCN1CCC(c2cccc3ccccc23)CC1 (stereo not given) , what is it?
Key: 7.82

* * *

- EXPERIMENTAL SYSTEM: 5-hydroxytryptamine receptor 1D (Homo sapiens, UniProt P28221)
- Sequence (P28221 whole entry): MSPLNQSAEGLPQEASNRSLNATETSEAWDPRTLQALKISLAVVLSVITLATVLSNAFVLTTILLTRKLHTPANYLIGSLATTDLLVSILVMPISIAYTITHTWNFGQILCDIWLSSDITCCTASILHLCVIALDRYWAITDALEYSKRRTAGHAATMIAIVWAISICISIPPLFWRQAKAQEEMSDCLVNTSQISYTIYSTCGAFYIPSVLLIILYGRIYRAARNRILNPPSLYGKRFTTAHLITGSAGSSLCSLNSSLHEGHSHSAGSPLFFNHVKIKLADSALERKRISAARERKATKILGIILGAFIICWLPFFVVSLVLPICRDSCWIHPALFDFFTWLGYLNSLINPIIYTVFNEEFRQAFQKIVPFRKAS
- ASSAY EXPLANATION: Binding affinity towards human 5-hydroxytryptamine 1D receptor in L-M(tk-) cells using [3H]GR-125743 as radioligand
- Format: cell-based
MEASURE NAME: pKi
Field pKi (float): negative decimal logarithm of the concentration in molar.

Here's what some known entries look like.
{"COMPOUND": "NC(=O)c1ccc2c(c1)CCOC2CCN1CC=C(c2coc3cc(F)ccc23)CC1 (centres undefined)", "pKi": 7.55}
{"COMPOUND": "N#Cc1cccc2c(C3=CCN(CCC4OCCc5cc(C(N)=O)ccc54)CC3)c[nH]c12 (centres undefined)", "pKi": 6.89}
{"COMPOUND": "Cn1cc(C2=CCN(CCC3OCCc4cc(C(N)=O)ccc43)CC2)c2ccc(F)cc21 (centres undefined)", "pKi": 7.19}
{"COMPOUND": "NC(=O)c1ccc2c(c1)CCOC2CCN1CC=C(c2cccc3ccc(F)cc23)CC1 (centres undefined)", "pKi": 7.59}
{"COMPOUND": "Cn1nc(C2=CCN(CCC3OCCc4cc(C(N)=O)ccc43)CC2)c2ccc(F)cc21 (centres undefined)", "pKi": 7.29}
{"COMPOUND": "NC(=O)c1ccc2c(c1)CCOC2CCN1CC=C(c2c[nH]c3c(F)c(F)ccc23)CC1 (centres undefined)", "pKi": 7.24}

Exercise: Need pKi of NC(=O)c1ccc2c(c1)CCOC2CCN1CC=C(c2c[nH]c3c(Cl)c(Cl)ccc23)CC1 (centres undefined) , thanks.
Key: 6.78

Exercise: And then NC(=O)c1ccc2c(c1)CCOC2CCN1CCC(c2nsc3cc(F)ccc23)CC1 (centres undefined) , what is it?
Key: 7.40

Exercise: And then NC(=O)c1ccc2c(c1)CCOC2CCN1CCC(c2c[nH]c3cc(F)ccc23)C1 (centres undefined) , what is it?
Key: 7.40

Exercise: And then NC(=O)c1ccc2c(c1)CCOC2CCN1CC=C(c2csc3cc(F)ccc23)CC1 (centres undefined) , what is it?
Key: 7.70

* * *

- EXPERIMENTAL SYSTEM: Sodium-dependent serotonin transporter (Rattus norvegicus)
- ASSAY EXPLANATION: In vitro binding affinity towards serotonin transporter using [3H]citalopram as radioligand in rat cerebral cortex membranes
- Assay type: cell membranes, Membrane
MEASURE NAME: pKi
Field pKi (float): negative decimal logarithm of the concentration in molar.

Here's what some known entries look like.
{"COMPOUND": "NC(=O)c1ccc2c(c1)CCOC2CCN1CC=C(c2c[nH]c3c(Cl)c(Cl)ccc23)CC1 (stereo not given)", "RESULT VALUE": 9.55}
{"COMPOUND": "NC(=O)c1ccc2c(c1)CCOC2CCN1CC=C(c2ccc(F)c3ccoc23)CC1 (stereo not given)", "RESULT VALUE": 8.72}
{"COMPOUND": "NC(=O)c1ccc2c(c1)CCOC2CCN1CC=C(c2coc3cc(F)ccc23)CC1 (stereo not given)", "RESULT VALUE": 9.54}
{"COMPOUND": "NC(=O)c1ccc2c(c1)CCOC2CCN1CC=C(c2c[nH]c3c(F)c(F)ccc23)CC1 (stereo not given)", "RESULT VALUE": 9.52}

Exercise: Need pKi of NC(=O)c1ccc2c(c1)CCOC2CCN1CC=C(c2c[nH]c3ccc(F)cc23)CC1 (stereo not given) , thanks.
Key: 8.80
